Origin of the recorded values: patent US10968210B2

tested_target: human Nav 1.7 channels stably expressed in HEK 293 cells (Homo sapiens)
Sequence (Q15858 whole entry): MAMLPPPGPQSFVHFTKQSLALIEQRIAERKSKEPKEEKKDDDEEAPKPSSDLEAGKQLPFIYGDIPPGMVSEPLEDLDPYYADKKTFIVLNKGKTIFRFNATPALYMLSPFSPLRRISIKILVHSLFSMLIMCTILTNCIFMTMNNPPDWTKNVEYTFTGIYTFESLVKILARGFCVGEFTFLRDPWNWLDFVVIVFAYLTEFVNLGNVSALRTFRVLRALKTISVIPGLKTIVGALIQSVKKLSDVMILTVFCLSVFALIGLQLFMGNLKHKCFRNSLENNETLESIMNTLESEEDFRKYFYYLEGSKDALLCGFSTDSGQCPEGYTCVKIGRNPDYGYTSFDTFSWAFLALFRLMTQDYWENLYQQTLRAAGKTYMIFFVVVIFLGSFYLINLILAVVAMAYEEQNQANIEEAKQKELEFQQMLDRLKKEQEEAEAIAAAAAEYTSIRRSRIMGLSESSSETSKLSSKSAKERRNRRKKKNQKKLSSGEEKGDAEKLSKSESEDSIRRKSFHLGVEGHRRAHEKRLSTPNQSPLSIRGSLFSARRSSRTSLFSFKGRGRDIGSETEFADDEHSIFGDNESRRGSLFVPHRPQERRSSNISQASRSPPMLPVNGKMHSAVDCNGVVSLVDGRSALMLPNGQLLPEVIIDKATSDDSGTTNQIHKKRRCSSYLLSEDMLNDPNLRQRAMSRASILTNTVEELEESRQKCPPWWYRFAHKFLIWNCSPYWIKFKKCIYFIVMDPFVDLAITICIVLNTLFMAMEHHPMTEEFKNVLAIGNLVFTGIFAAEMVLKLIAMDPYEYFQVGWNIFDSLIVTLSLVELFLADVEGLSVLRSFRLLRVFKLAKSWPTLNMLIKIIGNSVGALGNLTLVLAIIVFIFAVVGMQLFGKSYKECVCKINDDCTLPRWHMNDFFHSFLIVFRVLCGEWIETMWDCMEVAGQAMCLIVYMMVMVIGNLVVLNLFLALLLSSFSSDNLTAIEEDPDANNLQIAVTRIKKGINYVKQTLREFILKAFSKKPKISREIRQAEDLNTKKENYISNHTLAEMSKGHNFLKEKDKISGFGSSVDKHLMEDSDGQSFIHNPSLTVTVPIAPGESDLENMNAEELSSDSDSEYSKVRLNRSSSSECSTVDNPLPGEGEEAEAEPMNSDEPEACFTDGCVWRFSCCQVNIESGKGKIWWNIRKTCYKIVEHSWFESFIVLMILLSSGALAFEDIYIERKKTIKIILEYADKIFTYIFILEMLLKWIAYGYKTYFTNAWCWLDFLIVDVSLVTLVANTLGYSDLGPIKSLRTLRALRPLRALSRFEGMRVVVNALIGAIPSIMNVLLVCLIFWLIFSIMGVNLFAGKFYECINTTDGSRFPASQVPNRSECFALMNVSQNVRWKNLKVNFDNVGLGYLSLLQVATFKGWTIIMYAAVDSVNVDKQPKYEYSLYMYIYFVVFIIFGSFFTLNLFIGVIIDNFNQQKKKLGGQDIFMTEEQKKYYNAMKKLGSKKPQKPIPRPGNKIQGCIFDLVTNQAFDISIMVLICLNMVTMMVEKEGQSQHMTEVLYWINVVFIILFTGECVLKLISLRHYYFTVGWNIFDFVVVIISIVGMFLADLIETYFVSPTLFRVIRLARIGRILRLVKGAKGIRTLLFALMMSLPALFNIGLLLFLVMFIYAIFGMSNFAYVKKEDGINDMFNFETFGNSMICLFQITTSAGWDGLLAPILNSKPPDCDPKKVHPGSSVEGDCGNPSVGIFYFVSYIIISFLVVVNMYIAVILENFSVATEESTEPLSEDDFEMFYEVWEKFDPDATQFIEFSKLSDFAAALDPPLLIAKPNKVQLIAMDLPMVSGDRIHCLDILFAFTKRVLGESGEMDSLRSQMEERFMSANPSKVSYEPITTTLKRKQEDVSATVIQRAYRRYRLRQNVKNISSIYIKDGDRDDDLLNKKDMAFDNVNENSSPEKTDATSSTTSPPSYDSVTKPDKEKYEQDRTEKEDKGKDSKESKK
test_description: IonWorks Quattro automated patch-clamp, inactivated state block of Nav 1.7
study_conditions: double-pulse protocol, HEK 293 cells held at -100 mV, read-out: potency for the Nav 1.7 sodium ion channel (IC50, IonWorks)
# IC50 listing for each entry below
attribute_measured: IC50

1) O=S(=O)(Nc1nccs1)c1cc(Cl)c(NCCCCNCC2NCc3ccccc32)cc1F (single isomer, unassigned) [Ex 2-4 Enantiomer B] : 21 nM
2) O=S(=O)(Nc1nccs1)c1cc(Cl)c(NCCCCN2CCCC3(CCCN3)C2)cc1F (stereo not drawn) : 130 nM
3) NC1C2CN(CCCCNc3cc(F)c(S(=O)(=O)Nc4nccs4)cc3Cl)CC12 (stereo not drawn) : 80 nM
4) O=S(=O)(Nc1nccs1)c1cc(Cl)c(NCCCCNC[C@@H]2C[C@H](c3ccccc3)CN2)cc1F : 16 nM
5) O=S(=O)(Nc1nccs1)c1cc(Cl)c(NCCCCNC[C@H]2C[C@@H](c3ccccc3)CN2)cc1F : 14 nM
6) O=S(=O)(Nc1nccs1)c1cc(Cl)c(NCCCCN[C@H]2[C@@H]3CC[C@H]2NC3)cc1F : 60 nM
7) O=S(=O)(Nc1nccs1)c1cc(Cl)c(NCCCCCNCC2CCN2)cc1F (stereo not drawn) : 200 nM
8) O=S(=O)(Nc1nccs1)c1cc(Cl)c(NCCCCNC2CNCC(c3ccccc3)C2)cc1F (stereo not drawn) : 37 nM
9) NCC1(c2ccccc2)CCN(CCCCNc2cc(F)c(S(=O)(=O)Nc3nccs3)cc2Cl)CC1 : 110 nM
10) O=S(=O)(Nc1nccs1)c1cc(Cl)c(NCCCCN2C[C@H]3CNC[C@H]3C2)cc1F : 26 nM
11) O=S(=O)(Nc1nccs1)c1cc(Cl)c(NCCCCNCCNCc2ccccc2)cc1F : 7 nM
12) COc1ccc(CC2(CNCCCCNc3cc(F)c(S(=O)(=O)Nc4nccs4)cc3Cl)CCCN2)cc1 (single isomer, unassigned) [Ex 1-16 Enantiomer B] : 130 nM
13) O=S(=O)(Nc1nccs1)c1cc(Cl)c(NCCCC(Cc2ccccc2)NC[C@@H]2CCCN2)cc1F (stereo partly drawn) : 17 nM
14) O=S(=O)(Nc1nccs1)c1cc(Cl)c(NCCCCNC[C@@H]2C[C@@H](c3ccccc3)CN2)cc1F : 32 nM
15) NCC1(c2ccccc2)CCN(CCCCNc2cc(F)c(S(=O)(=O)Nc3nccs3)cc2Cl)C1 (stereo not drawn) : 46 nM
16) N[C@@H]1CCCN(CCCCNc2cc(F)c(S(=O)(=O)Nc3nccs3)cc2Cl)C1 : 190 nM
17) O=S(=O)(Nc1nccs1)c1cc(Cl)c(NCCCCNC[C@@H]2C[C@H](Oc3ccccc3)CN2)cc1F : 40 nM
18) O=S(=O)(Nc1ncns1)c1cc(Cl)c(NCCCCN2C[C@H]3CCCN[C@H]3C2)cc1F : 12 nM
